From: PubChem BioAssay (NCATS)

# Assay text: qHTS for differential inhibitors of proliferation of Plasmodium falciparum line 3D7 (AID 1876)
# Condition label: P. falciparum 3D7 proliferation inhibition; series mostly up to 28.7 µM
Records with an inconclusive call do not appear. Activity calls are given as the source filed them. Calls follow the shape of the dose curve; as a rule, active = well fitted curve in the direction sought with a large enough effect; inconclusive = small, poorly fitted or top-dose-only effect, or another doubt; inactive = no such curve, though single readings can be large or run the other way.
Classes used: Y (active), N (inactive)

1) O=C(Cc1ccc(Cl)c(Cl)c1)N1CCCCC1CN1CCCC1 (stereo not given); Y
2) CC(=O)NCCc1c[nH]c2ccccc12; N
3) C=CCN1CC[C@]23CCCCC2[C@H]1Cc1ccc(O)cc13 (stereo not given in full); N
4) NC(=NCCC[C@H](N)C(=O)O)N[N+](=O)[O-]; N
5) Clc1cnc(Oc2ccc(Oc3ncc(Cl)cc3Cl)cc2)c(Cl)c1; N
6) NC1CCc2cc(O)c(O)cc2C1 (stereo not given); N
7) CCCN1CCO[C@@H]2c3cc(O)ccc3OC[C@H]21; N
8) C#CCOC(=O)C1=CCCN(C)C1; Y
9) Oc1ccc2c3c1O[C@H]1c4[nH]c5c(c4C[C@@]4(O)[C@@H](C2)N(CC2CC2)CC[C@]314)C[C@@]1(O)[C@H]2Cc3ccc(O)c4c3[C@@]1(CCN2CC1CC1)[C@H]5O4; Y
10) Clc1ccc(C(c2ccc(Cl)cc2)n2cc[n+](CC(OCc3ccc(Cl)cc3Cl)c3ccc(Cl)cc3Cl)c2)cc1 (stereo not given); Y

###

# Assay text: Quantitative High-Throughput drug screen in 47 multiple myeloma cell lines against the NCATS MIPE library collection: EJM_DSMZ cell viability assay (AID 1918926; also: nearly all actives have a fitted effect of over 30% in size)
# Condition label: EJM myeloma cell viability, CellTiter-Glo ATP, 48 h; series mostly up to 45.8 µM
Records with an inconclusive call do not appear. Calls of active or inactive are those of the source. Calls come from the whole dose curve; as a rule, active = well fitted cell-killing curve with a large enough effect; inconclusive = small, poorly fitted or top-dose-only effect, or effect the other way; inactive = no such curve, though single readings can be large or run the other way.
Classes used: active, inactive

1. C#CC1(O)CCC2C3CCC4=CC(=O)CCC4(C)C3CCC21C (stereo not given); inactive
2. NC1CC1c1ccccc1 (stereo not given); inactive
3. CN(C)[C@@H]1C(=O)C(C(N)=O)=C(O)[C@@]2(O)C(=O)C3=C(O)c4c(O)cccc4[C@@](C)(O)[C@H]3[C@H](O)[C@@H]12; inactive
4. C#C[C@]1(O)C=C[C@@H]2[C@@H]3CCC4=CC(=O)CC[C@@H]4[C@H]3CC[C@@]21CC; inactive
5. CC(C)N[C@@H]1CCn2c(=O)[nH]c3cccc(c32)[C@@H]1O; active
6. C=CCON=C(C[C@H]1O[C@@H]2O[C@]3(C)CC[C@@H]4[C@H](C)CC[C@@H]([C@H]1C)[C@@]24OO3)[C@H]1O[C@@H]2O[C@]3(C)CC[C@H]4[C@H](C)CC[C@@H]([C@@H]1C)[C@@]24OO3; active
7. CC1=C(O)C(=O)C=C2C1=CC=C1[C@@]2(C)CC[C@@]2(C)[C@@H]3C[C@](C)(C(=O)O)CC[C@]3(C)CC[C@]12C; active
8. COc1ccc(CC2NCCc3cc(OC)c(OC)cc32)cc1OC (stereo not given); inactive
9. CC[C@@H](C(N)=O)N1CCCC1=O; inactive
10. CC(C)(C)c1cc(C=C(C#N)C#N)cc(Br)c1O; active
11. CCN(CC)C(=O)c1ccc(C2=CC3(CCNCC3)Oc3cccc(O)c32)cc1; inactive
12. CN1[C@H]2CC(O)C[C@H]1[C@H]1O[C@H]12 (stereo not given in full); active
13. CC(C)(O)C=CC(=O)[C@](C)(O)[C@H]1[C@H](O)C[C@]2(C)[C@@H]3CC=C4[C@@H](C=C(O)C(=O)C4(C)C)[C@]3(C)C(=O)C[C@@]12C; active
14. COC1=CC(C)=C[C@@H](C)[C@@H](O)[C@@H](C)CC(C)=CC=C[C@H](OC)[C@H]([C@@H](C)[C@@H](O)[C@H](C)[C@@]2(O)C[C@@H](O)[C@H](C)[C@@H](C(C)C)O2)OC1=O; active
15. CCN1C[C@]2(OC(=O)c3ccccc3NC(C)=O)CC[C@H](OC)[C@@]34[C@H]5CC6[C@@H](OC)C[C@](O)(C(C[C@@H]23)[C@@H]14)[C@@]5(O)[C@@H]6OC; inactive
16. COc1ccc(N(C(=O)Oc2c(C)cccc2C)c2ccnc(Nc3ccc(N4CCN(C)CC4)cc3)n2)c(OC)c1; active
17. O=[N+]([O-])c1ncc[nH]1; inactive
18. O=C1CCC[C@@H]2[C@H]3CCCN4CCC[C@@H](CN12)[C@@H]34; inactive
19. O=C1C=CC[C@@H]2[C@H]3CCCN4CCC[C@@H](CN12)[C@@H]34; inactive
20. Cc1[nH]nc2ccc(-c3cncc(OC[C@@H](N)Cc4c[nH]c5ccccc45)c3)cc12; active
21. CSCC[C@@H](NC(=O)[C@@H](Cc1ccccc1)NC(=O)CNC(=O)CNC(=O)[C@@H](N)Cc1ccc(O)cc1)C(=O)O; inactive
22. O=c1[nH]c2ccccc2n1C1CCN(Cc2ccc(-c3[nH]c4cc5ncnc5cc4nc3-c3ccccc3)cc2)CC1; active
23. O=C(Oc1ccc([N+](=O)[O-])cc1)N1CCC(C(O)(c2ccc3c(c2)OCO3)c2ccc3c(c2)OCO3)CC1; inactive
24. Cc1c(C(=O)Nc2cccc(C(F)(F)F)c2)cc(-c2ccccc2)n1CCCN1CCOCC1; active
25. O=C(O)CNC(=O)c1c(O)c2ccccc2n(Cc2ccccc2)c1=O; inactive
26. C[C@@H]1O[C@@H](O[C@@H]2C=C3CC[C@@H]4[C@@H](CC[C@]5(C)[C@H](c6ccc(=O)oc6)CC[C@@]45O)[C@@]3(C)CC2)[C@H](O)[C@H](O)[C@H]1O; active
27. CN[C@@H]1Cc2cccc3[nH]c(=O)n(c23)C1; inactive
28. C[C@]12CC[C@H]3[C@@H](CCC4=CC(=O)CC[C@@]43C)[C@H]1CC[C@H]2OC(=O)CCC1CCCC1; active
29. C[C@]12COC(=O)C[C@@H]1CC[C@@H]1[C@H]2CC[C@@]2(C)[C@H]1CC[C@]2(C)O; inactive
30. CCCN1CCO[C@@H]2c3cc(O)ccc3OC[C@@H]21; inactive
31. CN(C)NC(=O)CCC(=O)O; inactive
32. CC(C)(C)[C@]1(O)C[C@@H]2OC(=O)C[C@@]23C(=O)O[C@@H]2OC(=O)[C@H](O)C213 (stereo not given in full); inactive
33. O=c1[nH]c2ccc(Cl)cc2c(N[C@@H]2CN3CCC2CC3)c1-c1nc2ccccc2[nH]1; active
34. C[C@@]12OC(=O)[C@]1([C@@H](O)[C@@H]1C=CCCC1)NC(=O)[C@H]2CCCl; active
35. COCC1(CO)C(=O)C2CCN1CC2 (stereo not given); active
